Test system: bovine cardiac myofibrils
Assay: Myofibril assay: PK/LDH-coupled steady-state ATPase activity of skinned bovine cardiac myofibrils
Format: biochemical
Conditions: Ca2+ activating to 75% of maximal rate
Protocol: To evaluate the effect of compounds on the ATPase activity of full-length cardiac myosin in the context of the native sarcomere, skinned myofibril assays were performed. […] Small molecule agents were assessed for their ability to inhibit the steady-state ATPase activity of bovine cardiac myofibrils using pyruvate kinase and lactate dehydrogenase (PK/LDH)-coupled enzyme system. This assay regenerates myosin-produced ADP into ATP by oxidizing NADH, producing an absorbance change at 340 nm. […]
Would you mind telling me the reported CDMF75 IC15 of each entry?
Record the value in µM, omitting the unit from your answer.

Quote CDMF75 IC15 reported for CC(=O)NCC1C(=O)N(c2ncc(Cl)cc2F)CC(=O)N1Cc1ccc(C(F)(F)F)cc1 (stereo not drawn) [Compound 629] please.
32.4

Quote CDMF75 IC15 reported for CNc1cccc(N2CC3(C2)C(=O)N(c2ccc(C#N)cc2F)CC(=O)N3Cc2ccc(C(F)(F)F)cc2)c1C(=O)OC [Compound 544] please.
0.3

Quote CDMF75 IC15 reported for O=C1C(C2CC(O)C2)N(Cc2ccc(F)cc2)C(=O)CN1c1ccc(Cl)cc1F (single isomer, unassigned) [Compound 866A] please.
4.4

Quote CDMF75 IC15 reported for CC(C)N1CC(=O)N(Cc2ccc(Cl)cc2)C2(CN(c3ccnc(C(F)F)c3)C2)C1=O [Compound 29] please.
5.6

Quote CDMF75 IC15 reported for CC(C)N1CC(=O)N(Cc2ccc(Cl)cc2)C2(CCN(c3ccccc3)C2)C1=O (stereo not drawn) [Compound 127] please.
0.8

Quote CDMF75 IC15 reported for O=C1CN([C@H]2CCOC2)C(=O)C2(CCN(c3ccccn3)C2)N1Cc1ccc(Cl)cc1 (stereo partly drawn) [Compound 94] please.
36.1

Quote CDMF75 IC15 reported for COC(=O)N1CC2(C1)C(=O)N(c1ncc(Cl)cc1F)CC(=O)N2[C@@H](C)c1ccc(C(F)(F)F)cc1 [Compound 615] please.
1.3

Quote CDMF75 IC15 reported for CC(C)CN1CC(=O)N(Cc2ccc(Cl)cc2)C2(CCN(c3ccccn3)C2)C1=O (stereo not drawn) [Compound 84] please.
4.0

Quote CDMF75 IC15 reported for Cc1cnc(N2CC3(C2)C(=O)N(C(C)C)CC(=O)N3Cc2ccc(Cl)cc2)s1 [Compound 44] please.
2.4

Quote CDMF75 IC15 reported for CC(C)N1CC(=O)N(Cc2ccc(C(F)(F)F)cc2)C2(CCN(C(=O)Nc3ccc(F)cc3)C2)C1=O (stereo not drawn) [Compound 115] please.
10.2

Quote CDMF75 IC15 reported for COC(=O)N1CC[C@]2(C1)C(=O)N(c1ccc(C#N)cc1F)CC(=O)N2Cc1ccc(C(F)(F)F)cc1 [Compound 216] please.
0.3

Quote CDMF75 IC15 reported for CNC(=O)N1CC2(C1)C(=O)N(c1ccc(Cl)c(C)c1)CC(=O)N2Cc1ccc(C(F)(F)F)cc1 [Compound 166] please.
2.4

* * *

test system: bovine cardiac myofibrils; experiment: Myofibril assay: PK/LDH-coupled steady-state ATPase activity of skinned bovine cardiac myofibrils; format: biochemical; conditions: Ca2+ activating to 75% of maximal rate
Label Y when CDMF75 IC15 is at or above 2 µM; otherwise label N.

Hello, I need to know if `Cc1ccc(N2CC3(C2)C(=O)N(C(C)C)CC(=O)N3Cc2ccc(Cl)cc2)nc1` has measured CDMF75 IC15 not below 2 µM. Thanks!
Y

Hello, I need to know if `CNc1ccc(N2CC3(C2)C(=O)N(c2ccc(C#N)cc2F)CC(=O)N3Cc2ccc(C(F)(F)F)cc2)cc1` has measured CDMF75 IC15 not below 2 µM. Thanks!
N

Hello, I need to know if `C[C@H](c1ccc(Cl)cc1)N1C(=O)CN(c2ncc(Cl)cc2F)C(=O)C12CC2` has measured CDMF75 IC15 not below 2 µM. Thanks!
Y

Hello, I need to know if `Cc1cc(N2CC3(C2)C(=O)N(C(C)C)CC(=O)N3Cc2ccc(Cl)cc2)n[nH]1` has measured CDMF75 IC15 not below 2 µM. Thanks!
Y

Hello, I need to know if CC(C)N1CC(=O)N(Cc2ccc(Cl)cc2)C2(CC(=O)N(c3ccccn3)C2)C1=O (centres unmarked) has measured CDMF75 IC15 not below 2 µM. Thanks!
Y

Hello, I need to know if O=C1C(C2CC(O)C2)N(Cc2ccc(C(F)(F)F)cc2)C(=O)CN1c1ncc(Cl)cc1F (single isomer, unassigned) [Compound 740C] has measured CDMF75 IC15 not below 2 µM. Thanks!
Y

Hello, I need to know if COC(=O)N1CCC2(C1)C(=O)N(C(C)C)CC(=O)N2Cc1ccc(C(F)(F)F)cc1 (centres unmarked) has measured CDMF75 IC15 not below 2 µM. Thanks!
Y

Hello, I need to know if `CC(C)[C@H]1C(=O)N(c2ncc(Cl)cc2F)CC(=O)N1Cc1ccc(C(F)(F)F)cc1` has measured CDMF75 IC15 not below 2 µM. Thanks!
N

Hello, I need to know if N#Cc1ccc(N2CC(=O)N(Cc3ccc(Cl)cc3)C3(CCN(C(=O)C4CCC4)C3)C2=O)c(F)c1 (stereo in doubt) has measured CDMF75 IC15 not below 2 µM. Thanks!
N

Hello, I need to know if `C[C@H]1C(=O)N(c2ccc(Cl)cc2F)CC(=O)N1Cc1ccc(C(F)(F)F)cc1` has measured CDMF75 IC15 not below 2 µM. Thanks!
Y

Hello, I need to know if `CC(C)N1CC(=O)N(Cc2ccc(Cl)cc2)C2(CN(c3ccc(Cl)nn3)C2)C1=O` has measured CDMF75 IC15 not below 2 µM. Thanks!
Y

Hello, I need to know if `CC(C)N1CC(=O)N([C@@H](C)c2ccc(C(F)(F)F)cc2)C2(CN(c3ccccc3)C2)C1=N` has measured CDMF75 IC15 not below 2 µM. Thanks!
Y

Hello, I need to know if O=C1C(C2CCSCC2)N(Cc2ccc(C(F)(F)F)cc2)C(=O)CN1c1ncc(Cl)cc1F (centres unmarked) has measured CDMF75 IC15 not below 2 µM. Thanks!
Y

Hello, I need to know if CC(C)N1CC(=O)N(Cc2ccc(Cl)cc2)C2(CCN(c3ccccn3)C2)C1=O (single isomer, unassigned) [Compound 373B] has measured CDMF75 IC15 not below 2 µM. Thanks!
Y

Hello, I need to know if N#Cc1ccc(N2CC(=O)N(Cc3ccc(F)cc3)C(C3COC3)C2=O)c(F)c1 (centres unmarked) has measured CDMF75 IC15 not below 2 µM. Thanks!
Y

Hello, I need to know if `CNC(=O)N1CC2(C1)C(=O)N(c1ccc(OC(F)F)cc1)CC(=O)N2Cc1ccc(C(F)(F)F)cc1` has measured CDMF75 IC15 not below 2 µM. Thanks!
Y

Hello, I need to know if `C[C@@H](c1ccc(Cl)cc1)N1C(=O)CN(c2ncc(Cl)cc2F)C(=O)C12CN(C(=O)OCC(F)F)C2` has measured CDMF75 IC15 not below 2 µM. Thanks!
Y

Hello, I need to know if N#Cc1ccc(N2CCC3(C2)C(=O)N(c2ccc([N+](=O)[O-])cc2)CC(=O)N3Cc2ccc(Cl)cc2)nc1 (centres unmarked) has measured CDMF75 IC15 not below 2 µM. Thanks!
N

Hello, I need to know if CC(C)N1CC(=O)N(Cc2ccc(Cl)cc2)C2(CCN(c3ccc(C(N)=O)cn3)C2)C1=O (centres unmarked) has measured CDMF75 IC15 not below 2 µM. Thanks!
Y

Hello, I need to know if Cc1cc(Cl)cnc1N1CC(=O)N(Cc2ccc(C(F)(F)F)cc2)C(CC2COC2)C1=O (centres unmarked) has measured CDMF75 IC15 not below 2 µM. Thanks!
Y

Hello, I need to know if CC(=O)NCC1C(=O)N(c2ncc(Cl)cc2F)CC(=O)N1Cc1ccc(Cl)cc1 (centres unmarked) has measured CDMF75 IC15 not below 2 µM. Thanks!
Y

Hello, I need to know if `Cc1cc(Cl)cnc1N1CC(=O)N(Cc2ccc(Cl)cc2)C2(CN(c3ccc(C#N)cn3)C2)C1=O` has measured CDMF75 IC15 not below 2 µM. Thanks!
N

Hello, I need to know if CNC(=O)[C@H]1C[C@]2(C1)C(=O)N(c1ccc(C#N)cc1F)CC(=O)N2Cc1ccc(C(F)(F)F)cc1 [Compound 486B] has measured CDMF75 IC15 not below 2 µM. Thanks!
N

Hello, I need to know if `CNC(=O)N1CC2(C1)C(=O)N(c1ccc(Cl)cn1)CC(=O)N2Cc1ccc(C(F)(F)F)cc1` has measured CDMF75 IC15 not below 2 µM. Thanks!
Y

Hello, I need to know if `CNC(=O)N1CC2(C1)C(=O)N(c1ccc3oc(=O)ccc3c1)CC(=O)N2Cc1ccc(C2(C(F)(F)F)N=N2)cc1` has measured CDMF75 IC15 not below 2 µM. Thanks!
Y

Hello, I need to know if `N#Cc1ccc(N2CC(=O)N(Cc3ccc(C(F)(F)F)cc3)C3(CN(C=O)C3)C2=O)c(F)c1` has measured CDMF75 IC15 not below 2 µM. Thanks!
N

Hello, I need to know if COc1cnc(N2CC(=O)N(Cc3ccc(C(F)(F)F)cc3)C(C3COC3)C2=O)c(F)c1 (single isomer, unassigned) [Compound 703B] has measured CDMF75 IC15 not below 2 µM. Thanks!
Y

Hello, I need to know if `CCC(=O)N1CC[C@]2(C1)C(=O)N(c1ccc(C#N)cc1F)CC(=O)N2Cc1ccc(Cl)cc1` has measured CDMF75 IC15 not below 2 µM. Thanks!
N
